Data provenance is ChEMBL document CHEMBL4007384.

tested on: Mitogen-activated protein kinase kinase kinase 10 (Homo sapiens, UniProt Q02779)
Sequence (Q02779 whole entry): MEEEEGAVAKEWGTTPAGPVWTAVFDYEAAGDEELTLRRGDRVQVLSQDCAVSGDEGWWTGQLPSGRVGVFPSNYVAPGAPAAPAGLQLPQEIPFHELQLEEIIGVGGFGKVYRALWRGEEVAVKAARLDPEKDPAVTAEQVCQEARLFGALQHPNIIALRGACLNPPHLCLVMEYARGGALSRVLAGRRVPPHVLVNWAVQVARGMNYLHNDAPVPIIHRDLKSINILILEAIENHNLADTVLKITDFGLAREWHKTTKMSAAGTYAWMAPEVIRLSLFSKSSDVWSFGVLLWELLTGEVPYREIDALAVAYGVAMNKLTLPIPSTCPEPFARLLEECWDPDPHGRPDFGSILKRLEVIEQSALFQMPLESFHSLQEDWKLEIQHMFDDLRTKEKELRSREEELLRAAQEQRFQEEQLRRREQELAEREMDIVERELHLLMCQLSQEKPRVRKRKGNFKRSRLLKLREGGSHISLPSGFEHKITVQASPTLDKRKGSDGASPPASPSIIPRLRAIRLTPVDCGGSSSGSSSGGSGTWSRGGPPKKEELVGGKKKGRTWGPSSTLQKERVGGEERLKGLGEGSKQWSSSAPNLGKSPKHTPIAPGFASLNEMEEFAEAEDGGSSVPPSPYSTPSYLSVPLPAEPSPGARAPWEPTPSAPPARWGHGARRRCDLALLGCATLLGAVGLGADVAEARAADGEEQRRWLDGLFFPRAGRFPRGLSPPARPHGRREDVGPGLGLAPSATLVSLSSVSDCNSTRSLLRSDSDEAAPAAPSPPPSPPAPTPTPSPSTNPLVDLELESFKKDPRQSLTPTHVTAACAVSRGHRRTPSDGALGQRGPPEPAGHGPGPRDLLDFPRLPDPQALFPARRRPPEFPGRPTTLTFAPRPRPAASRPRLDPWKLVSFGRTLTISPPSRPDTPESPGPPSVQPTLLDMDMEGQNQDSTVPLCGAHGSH
assay summary: Inhibition of MAP3K10 (unknown origin) after 60 mins by TR-FRET assay
endpoint: pIC50
On this scale, pIC50 is minus log10 of a concentration expressed in M (mol/L).

Requested field: pIC50. Item: CC1(C)OCC(=O)Nc2cc(Nc3nc(NCC(F)(F)F)c4occc4n3)ccc21
5.34

###

tested on: Mitogen-activated protein kinase kinase kinase kinase 4 (Homo sapiens)
Sequence (O95819 whole entry): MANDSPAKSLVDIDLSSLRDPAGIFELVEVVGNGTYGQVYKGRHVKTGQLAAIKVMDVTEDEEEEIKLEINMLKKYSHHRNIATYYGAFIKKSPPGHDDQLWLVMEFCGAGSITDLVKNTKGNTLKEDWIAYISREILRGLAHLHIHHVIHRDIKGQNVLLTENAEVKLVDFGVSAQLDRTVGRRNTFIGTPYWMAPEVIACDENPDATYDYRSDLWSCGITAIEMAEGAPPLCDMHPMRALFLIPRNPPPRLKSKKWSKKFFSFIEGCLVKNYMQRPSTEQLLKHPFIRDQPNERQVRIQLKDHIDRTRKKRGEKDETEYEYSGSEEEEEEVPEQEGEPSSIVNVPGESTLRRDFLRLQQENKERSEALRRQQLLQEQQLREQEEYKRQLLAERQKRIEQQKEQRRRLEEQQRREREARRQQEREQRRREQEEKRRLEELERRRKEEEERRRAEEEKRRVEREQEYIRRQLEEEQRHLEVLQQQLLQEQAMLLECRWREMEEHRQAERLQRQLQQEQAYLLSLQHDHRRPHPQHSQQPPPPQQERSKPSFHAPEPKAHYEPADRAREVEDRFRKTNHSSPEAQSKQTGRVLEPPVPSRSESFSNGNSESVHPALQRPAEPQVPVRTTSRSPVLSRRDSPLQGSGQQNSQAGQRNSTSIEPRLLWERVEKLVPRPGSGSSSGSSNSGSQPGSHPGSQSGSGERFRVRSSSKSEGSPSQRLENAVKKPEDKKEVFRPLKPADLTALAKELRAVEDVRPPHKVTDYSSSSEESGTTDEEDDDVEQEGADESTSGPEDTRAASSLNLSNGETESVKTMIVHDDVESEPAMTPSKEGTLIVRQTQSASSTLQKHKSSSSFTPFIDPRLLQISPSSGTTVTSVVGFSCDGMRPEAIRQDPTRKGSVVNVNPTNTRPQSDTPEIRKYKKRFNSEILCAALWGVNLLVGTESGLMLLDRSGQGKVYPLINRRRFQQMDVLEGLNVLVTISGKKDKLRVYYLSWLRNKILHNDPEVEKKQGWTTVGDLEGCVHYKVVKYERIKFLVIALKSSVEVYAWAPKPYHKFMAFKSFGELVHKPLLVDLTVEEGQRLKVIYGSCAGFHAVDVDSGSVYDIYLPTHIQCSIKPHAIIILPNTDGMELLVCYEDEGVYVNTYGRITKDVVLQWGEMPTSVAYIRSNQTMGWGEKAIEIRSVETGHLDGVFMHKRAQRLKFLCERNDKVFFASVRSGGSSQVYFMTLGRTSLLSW
assay summary: Inhibition of MAP4K4 (unknown origin) after 60 mins by TR-FRET assay
pIC50: −log10 of the molar value.
For each entry below, report its pIC50 value.

Requested field: pIC50. Item: Cc1n[nH]c2cc(Nc3nc(NC4CC4)c4occc4n3)ccc12
5.03

Requested field: pIC50. Item: FC(F)(F)CNc1nc(Nc2ccc3cn[nH]c3c2)nc2ccoc12
< 5.00

Requested field: pIC50. Item: CC1(C)OCC(=O)Nc2cc(Nc3nc(NCC(F)(F)F)c4occc4n3)ccc21
< 5.00

Requested field: pIC50. Item: FC(F)(F)CNc1nc(Nc2ccc(N3CCOCC3)c(Cl)c2)nc2ccoc12
< 5.00

###

tested on: Casein kinase I isoform alpha (Homo sapiens)
Sequence (P48729 whole entry, canonical isoform): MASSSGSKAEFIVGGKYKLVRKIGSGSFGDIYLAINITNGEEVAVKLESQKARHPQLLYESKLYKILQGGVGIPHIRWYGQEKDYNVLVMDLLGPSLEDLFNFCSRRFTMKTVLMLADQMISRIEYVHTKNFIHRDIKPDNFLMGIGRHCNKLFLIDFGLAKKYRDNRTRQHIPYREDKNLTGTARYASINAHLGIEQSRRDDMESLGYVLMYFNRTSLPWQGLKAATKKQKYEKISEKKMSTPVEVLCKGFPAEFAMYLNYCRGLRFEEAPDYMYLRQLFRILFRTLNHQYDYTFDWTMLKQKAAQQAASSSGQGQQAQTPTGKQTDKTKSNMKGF
assay summary: Inhibition of CK1alpha1 (unknown origin) after 60 mins by TR-FRET assay
pIC50: −log10 of the molar value.
endpoint: pIC50

Requested field: pIC50. Item: Cc1n[nH]c2cc(Nc3nc(NC4CC4)c4occc4n3)ccc12
5.12

Requested field: pIC50. Item: FC(F)(F)CNc1nc(Nc2ccc(N3CCOCC3)c(Cl)c2)nc2ccoc12
< 5.00

Requested field: pIC50. Item: CC1(C)OCC(=O)Nc2cc(Nc3nc(NCC(F)(F)F)c4occc4n3)ccc21
< 5.00

###

assay summary: Unbound clearance in rat microsomes
Format: ADME, Microsome
For each entry below, report its CL free value.
Numeric only. Scale: mL/min/kg

Requested field: CL free. Item: CC1(C)CCC(=O)Nc2cc(Nc3nc(NC4CC4)c4occc4n3)ccc21
397

Requested field: CL free. Item: O=C1CCc2ccc(Nc3nc(NCC(F)(F)F)c4occc4n3)cc2N1
365

Requested field: CL free. Item: CCCNc1nc(Nc2ccc3c(c2)NC(=O)COC3(C)C)nc2ccoc12
373

Requested field: CL free. Item: COC(=O)N[C@@H]1CC(C)(C)c2ccc(Nc3nc(NCC(F)F)c4occc4n3)cc2NC1=O
177

Requested field: CL free. Item: FC(F)(F)CNc1nc(Nc2ccc3cn[nH]c3c2)nc2ccoc12
255

Requested field: CL free. Item: CC1(C)OCC(=O)Nc2cc(Nc3nc(NC4CC4)c4occc4n3)ccc21
200

Requested field: CL free. Item: COC(=O)N[C@@H]1CC(C)(C)c2ccc(Nc3nc(NC4CC4)c4occc4n3)cc2NC1=O
182

Requested field: CL free. Item: CCNc1nc(Nc2ccc3c(c2)NC(=O)COC3(C)C)nc2ccoc12
318

Requested field: CL free. Item: CC(C)CNc1nc(Nc2ccc3c(c2)NC(=O)COC3(C)C)nc2ccoc12
1080

Requested field: CL free. Item: CC1(C)CCC(=O)Nc2cc(Nc3nc(NCC(F)(F)F)c4occc4n3)ccc21
880

Requested field: CL free. Item: FC(F)(F)CNc1nc(Nc2ccc(N3CCOCC3)c(Cl)c2)nc2ccoc12
1600

Requested field: CL free. Item: CC1(C)Oc2ccc(Nc3nc(NCC(F)(F)F)c4occc4n3)cc2NC1=O
177

Requested field: CL free. Item: COC(=O)N[C@H]1CC(C)(C)c2ccc(Nc3nc(NC4CC4)c4occc4n3)cc2NC1=O
332
